Molecular target: STAT5b (Homo sapiens)
Sequence (P51692 1-787): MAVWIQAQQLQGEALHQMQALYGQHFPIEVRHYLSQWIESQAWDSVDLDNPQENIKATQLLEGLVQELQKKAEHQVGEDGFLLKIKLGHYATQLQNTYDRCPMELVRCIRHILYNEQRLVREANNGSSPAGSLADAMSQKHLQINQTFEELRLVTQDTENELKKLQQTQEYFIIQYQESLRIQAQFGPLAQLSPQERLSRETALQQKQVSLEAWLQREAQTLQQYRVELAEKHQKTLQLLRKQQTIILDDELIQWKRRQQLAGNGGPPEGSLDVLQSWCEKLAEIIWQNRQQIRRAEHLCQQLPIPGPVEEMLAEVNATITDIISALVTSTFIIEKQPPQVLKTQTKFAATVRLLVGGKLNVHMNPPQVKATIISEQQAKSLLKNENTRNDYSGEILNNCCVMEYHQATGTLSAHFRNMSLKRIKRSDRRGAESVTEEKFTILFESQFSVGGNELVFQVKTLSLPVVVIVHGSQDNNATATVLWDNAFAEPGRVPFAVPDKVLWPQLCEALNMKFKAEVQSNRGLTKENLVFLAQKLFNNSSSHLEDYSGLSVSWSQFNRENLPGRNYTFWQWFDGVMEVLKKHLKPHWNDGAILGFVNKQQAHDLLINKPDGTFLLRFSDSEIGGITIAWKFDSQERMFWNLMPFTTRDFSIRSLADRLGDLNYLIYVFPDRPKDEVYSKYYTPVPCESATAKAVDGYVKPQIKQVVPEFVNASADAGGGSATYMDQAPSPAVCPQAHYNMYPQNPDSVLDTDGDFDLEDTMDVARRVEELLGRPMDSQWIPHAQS
Experiment: Fluorescence polarization (FP) binding assay, STAT5b
Conditions: FP assay; n=3 (6a n=2); read-out: STAT5b IC50
observedProperty: IC50 (µM)
Use µM as the unit, but write only the number.

Per the records, this compound ( COc1cc(-c2cc(-c3cc(F)c(F)c(F)c3)cc(C(F)P(=O)(O)O)c2)cc(OC)c1OC (stereo not shown) ) has IC50 equal to 50.7

Recorded values, source paper PMC9303812.
